tested-on: T1, Soluble TSHR (22-260) protein (human, UniProt P16473 22-260)
T1 construct: range 22-260
test-method-notes: SPR (Biacore T200, 25 C), antibody captured on anti-human Fc, soluble TSHR (22-260) as analyte, 1:1 fit;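 further: antibodies captured at 0.1 ug/mL on a CM5 sensor chip bearing anti-human Fc, with HBS-EP+ running buffer at pH 7.4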
endpoint-name: koff (s⁻¹)
Give the quantity in s⁻¹, number only.

// below: answered binders
# binder, endpoint-name, endpoint-value
records = [
    ("TSHB-11 (antibody, V domains shown) VH: EVQLVQSGAEVKKPGESLKISCKASGYSLTDNWIGWVRQKPGKGLEWMGIIYPGDSDTRYSPSFQGQVTISADKSISTAYLQWSSLKASDTAIYYCVGTDWNYNPLRYWGQGTLVTVSS VL: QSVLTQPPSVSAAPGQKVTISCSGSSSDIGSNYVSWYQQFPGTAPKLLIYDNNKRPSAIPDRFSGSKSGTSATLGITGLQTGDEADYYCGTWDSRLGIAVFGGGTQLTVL", "koff", 0.000643),
    ("TSHB-24 (antibody, V domains shown) VH: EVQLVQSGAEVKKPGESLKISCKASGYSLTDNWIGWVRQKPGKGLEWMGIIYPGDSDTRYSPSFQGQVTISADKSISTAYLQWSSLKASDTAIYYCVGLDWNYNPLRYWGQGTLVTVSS VL: QSVLTQPPSVSGAPGQRVTISCSGSSSDIGSNYVSWYQQLPGTAPKLLIYDNNKRPSGVPDRFSGSKSGTSASLAITGLQAEDEADYYCGTWDSRLGIAVFGGGTKLTVL", "koff", 0.000348),
]

Attention now shifts to the item below.
# input // Input: TSHB-18 (antibody, V domains shown) VH: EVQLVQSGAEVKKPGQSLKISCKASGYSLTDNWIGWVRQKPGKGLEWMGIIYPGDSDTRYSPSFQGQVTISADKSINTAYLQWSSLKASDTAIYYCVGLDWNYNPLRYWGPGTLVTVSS VL: QSVLTQPPSVSAAPGQKVTISCSGSSTDIGSNYVSWYQQLPGTAPKLLIYDNNKRPSGIPDRFSGSKSGTSATLGITGLQTGDEADYYCGTWDSRLGIAVFGGGTQLTVL . Output its koff only.
# output 0.000368
